target: T1, biotin-labeled IL-2 with a human Fc-tag (Sanyou Biopharmaceutical, GenBank Accession No: P60568-1) (UniProt P60568 21-153, biotin-labeled (site not stated)); assay: ELISA, antibody titrated and captured by anti-human IgG, biotin-IL-2-Fc 2 µg/mL
T1 construct: Bought reagent; also called biotinylated IL-2-Fc; not shown: human Fc-tag
T1 sequence (P60568 21-153 limits assumed, one chain of several): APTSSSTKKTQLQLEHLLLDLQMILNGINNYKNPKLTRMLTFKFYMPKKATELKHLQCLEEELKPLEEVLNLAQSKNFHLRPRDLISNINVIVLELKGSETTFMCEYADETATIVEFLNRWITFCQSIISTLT
readout.name: EC50 (mg/L)
Numbers only; they are read as mg/L.

Here is how some binders turned out for EC50.
INSERT INTO results (binder, unit_string, measured_result) VALUES
  ('C2-53 full-length fully human anti-IL-2 antibody (antibody, human IgG1, kappa, L234A L235A, V domains shown, Human IgG1 with LALA mutation, kappa light chain) VH: EVQLVESGGGLVQPGRSLILSCAASGFTFDDYAMHWVRQAPGKGLEWVSGISWNSGSIGYADSVKGRFTISRDNAKNSLYLQMNSLRAEDTALYYCAKDQLRWGTYYYYGMDVWGQGTTVTVSS VL: DIQMTQSPSTLSASVGDRVTITCRASQSVSIWVAWYQQKPGKAPKLLIYKASSLERGVPTRFSGSGSGTEFTLTISSLQPEDFATYHCQQYDTGATFGQGTKVEMKR', 'mg/L', 0.73),
  ('D3-68 full-length fully human anti-IL-2 antibody (antibody, human IgG1, kappa, L234A L235A, V domains shown, Human IgG1 with LALA mutation, kappa light chain) VH: QVQLVQSGPEVKKPGASVKVSCKASGYTFTSYGISWVRRAPGQGLEWMGWISAYNGNTNYAQKLQGRVTMTTDTSTSTAYMELRSLRSDDTAVYYCARDLQSPTYYYGSGVIDYWGQGTLVTVSS VL: DIQLTQSPSTLSASVGDRVTISCRASRAVSPWLAWYQHRPGQAPKLLIYAASSLQSGVPSRFSGSGSGTDFTLTISSLQPEDFATYYCQQYRSYPFTFGPGTTVDIRR', 'mg/L', 1.21),
  ('D2-60 full-length fully human anti-IL-2 antibody (antibody, human IgG1, kappa, L234A L235A, V domains shown, Human IgG1 with LALA mutation, kappa light chain) VH: QVQLVQSGAEVKKPGASVKVSCKASGYTFTSYGISWVRQAPGQGLEWMGWISAYNGNTNYAQKLQGRVTMTTDTSTSTAYMELRSLRSDDTAVYYCAREYSSWYSGGMDVWGQGTTVTVSS VL: DIQMTQSPSSLSASVGDRVTITCRASQGISNYLAWYQQKPGKVPKLLIYAASTLQSGVPSRFSGSGSGTDFTLTISSLQPEDVATYYCQKYDSAPFTFGQGTRLEIKR', 'mg/L', 1.43);

*Q* Reported EC50, binder A3-21 full-length fully human anti-IL-2 antibody (antibody, human IgG1, lambda, L234A L235A, V domains shown, Human IgG1 with LALA mutation) VH: EVQLLESGGGLAQPGGSLRLSCAGSGFTFSSYAMSWVRQAPGKGLEWVSGITGTGYRTYYADSVKGRFTVSRDNSRNTVYLQMNSLRAEDTAVYYCVRESGHYYGWFDSWGQGTLVTVSS VL: QSALTQPPSVSGAPGQRVTISCTGSSSNIGAGYNVHWYQQVPGTVPKLLIDGKGNRPSGVPDRFSGSKSGTSASLAITGLQAEDEADYYCQSYDYMLSGSVVFGRGTKLTVLG : ____
*A* 1.35

*Q* Data request, read-out EC50, for A2-22 full-length fully human anti-IL-2 antibody (antibody, human IgG1, kappa, L234A L235A, V domains shown, Human IgG1 with L234A/L235A (LALA), kappa light chain; expressed in HEK293) VH: QVQLVQSGAEVKKPGASVKVSCKASGYTFTSYYMHWVRQAPGQGLEWMGIINPSGGSTSYAQKFQGRVTMTRDTSTSTVYMELSSLRSEDTAVYYCAREDWMEYEYYYGMDVWGQGTLVTVSS VL: EIVLTQSPGTLSLSPGERATLSCRASQSVSNNYLAWYQQKPGQAPRLLIYGASSRATGIPDRFSGSGSGTDFTLTISRLEPEDFAVYSCQQYGSSPLTFGQGTRLEIKR
*A* 1.29

Values compiled from patent US20230089620A1.
